# assay.comment: Harmonic mean apparent terminal disposition half-life [t1/2beta (h)] in Male Sprague-Dawley Rat at dose 49.4 (mg/kg po)
# Type: ADME, organism-based
# experimental.conditions: in vivo, read-out: T1/2 beta (converted)
quantity.name: half-life (min)
The answer is to be given in min; state only the numeric part.

Fill in: half-life of CC(=O)NC[C@H]1CC(c2ccc(N3CCN(C(=O)CO)CC3)c(F)c2)=NO1 is ___
42

----------
# assay.comment: Absolute oral bioavailability in Male Sprague-Dawley Rat (10.1 mg/kg iv)
# Type: ADME, organism-based
# experimental.conditions: in vivo
quantity.name: bioavailability (%)
The answer is to be given in %; state only the numeric part.

Fill in: bioavailability of CC(=O)NC[C@H]1CC(c2ccc(N3CCN(C(=O)CO)CC3)c(F)c2)=NO1 is ___
100

----------
# assay.comment: Plasma clearance in Male Sprague-Dawley Rat (10 mg/kg iv)
# Type: ADME, organism-based
quantity.name: clearance (mL/min/kg)
The answer is to be given in mL/min/kg; state only the numeric part.

Fill in: clearance of CC(=O)NC[C@H]1CN(c2ccc(N3CCN(C(=O)CO)CC3)c(F)c2)C(=O)O1 [EPEREZOLID] is ___
24.9

----------
# assay.comment: Absolute oral bioavailability in Male Sprague-Dawley Rat (48.9 mg/kg po)
# Assay type: ADME, organism-based
# experimental.conditions: in vivo
quantity.name: bioavailability (%)
The answer is to be given in %; state only the numeric part.

Fill in: bioavailability of CC(=O)NC[C@H]1CC(c2ccc(N3CCOCC3)c(F)c2)=NO1 is ___
143

----------
# Tested on: Escherichia coli
# assay.comment: In vitro minimum inhibitory concentration (MIC) against Escherichia coli UC6674
# Assay type: functional
quantity.name: MIC

Recorded results for 2 compounds are shown here.
COC(=O)N1CC=C(c2ccc(C3=NOC(CNC(C)=O)C3)cc2)CC1 (stereo unspecified): > 16 µg/mL
CC(=O)NC[C@H]1CC(c2ccc(-c3ccncc3)cc2)=NO1: > 16 µg/mL

# get_value(readout= MIC, system= Escherichia coli) for CC(=O)NC[C@H]1CN(c2ccc(N3CCOCC3)c(F)c2)C(=O)O1
> 32 µg/mL

# get_value(readout= MIC, system= Escherichia coli) for C/C(S)=N/C[C@H]1CC(c2cc(F)c(-n3ccnc3)c(F)c2)=NO1
> 16 µg/mL

# get_value(readout= MIC, system= Escherichia coli) for CC(=O)NC[C@@H]1CC(c2cc(F)c(N3CCOCC3)c(F)c2)=NO1
> 16 µg/mL

# get_value(readout= MIC, system= Escherichia coli) for CC(=O)NCC1CC(c2ccc(N3CCN(C(=O)CO)CC3)c(F)c2)=NO1 (racemic)
> 16 µg/mL

----------
# tested.target: CYP1A2 (Homo sapiens, UniProt P05177)
# Sequence (P05177 whole entry): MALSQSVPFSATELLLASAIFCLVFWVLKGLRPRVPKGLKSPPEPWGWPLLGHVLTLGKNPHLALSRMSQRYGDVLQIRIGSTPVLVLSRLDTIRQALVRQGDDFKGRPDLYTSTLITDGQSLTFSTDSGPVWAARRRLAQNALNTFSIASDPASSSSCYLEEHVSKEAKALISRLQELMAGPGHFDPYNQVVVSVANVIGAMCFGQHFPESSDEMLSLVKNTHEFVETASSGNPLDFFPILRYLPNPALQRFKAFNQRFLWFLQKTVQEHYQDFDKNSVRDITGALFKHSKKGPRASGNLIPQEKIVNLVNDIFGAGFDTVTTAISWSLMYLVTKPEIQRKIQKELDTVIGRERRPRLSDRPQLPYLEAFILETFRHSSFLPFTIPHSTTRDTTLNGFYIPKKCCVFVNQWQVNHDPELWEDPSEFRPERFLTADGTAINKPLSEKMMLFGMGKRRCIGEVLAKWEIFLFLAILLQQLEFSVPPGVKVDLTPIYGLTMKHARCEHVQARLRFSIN
# assay.comment: Inhibition of heterologously expressed human Cytochrome P450 1A2 at 100 uM
# Assay type: ADME
# Design: scale not given: the % may be the effect or the level left
# experimental.conditions: read-out: Control of P-450 marker
quantity.name: activity at 100 µM (%)
The answer is to be given in %; state only the numeric part.

Fill in: activity at 100 µM of CC(=O)NC[C@H]1CC(c2ccc(N3CCOCC3)c(F)c2)=NO1 is ___
102

----------
# assay.comment: Cmax value in Male Sprague-Dawley Rat at dose 25 (mg/kg po)
# Format: ADME, organism-based
# Parameters: dose 25 mg/kg, route oral
# experimental.conditions: in vivo
quantity.name: Cmax (ng/mL)
The answer is to be given in ng/mL; state only the numeric part.

Fill in: Cmax of CC(=O)NC[C@H]1CN(c2ccc(N3CCN(C(=O)CO)CC3)c(F)c2)C(=O)O1 [EPEREZOLID] is ___
2260

----------
# Tested on: Haemophilus influenzae
# assay.comment: In vitro minimum inhibitory concentration (MIC) against Haemophilus influenzae UC30063
# Assay type: functional
quantity.name: MIC

CC(=O)NC[C@H]1CC(c2cc(F)c(N3CCN(C(=O)CO)CC3)c(F)c2)=NO1: 16 µg/mL
C/C(S)=N/C[C@H]1CC(c2cc(F)c(-n3ccnc3)c(F)c2)=NO1: > 16 µg/mL
CC(=O)NC[C@H]1CC(c2ccc(N3CCCC3)c(F)c2)=NO1: > 16 µg/mL
CC(=O)NC[C@H]1CC(c2ccc(C3=CCN(C(=O)CO)CC3)cc2)=NO1: > 16 µg/mL
CC(=O)NCC1CC(c2ccc(Br)cc2)=NO1 (stereo not given): > 16 µg/mL
CC(=O)NC[C@H]1CC(c2ccc(N3CCN(C(=O)CO)CC3)c(F)c2)=NO1: > 16 µg/mL
CC(=O)NCC1CC(c2ccc(N3CCN(C(=O)CO)CC3)c(F)c2)=NO1 (racemic): > 16 µg/mL
CC(=O)NCC1CC(c2ccc(N3CCN(C(=O)CO)CC3)cc2)=NO1 (stereo not given): > 16 µg/mL

Fill in: MIC of CC(=O)NC[C@H]1CC(c2ccc(-c3ccncc3)cc2)=NO1 is ___
16 µg/mL

Fill in: MIC of CC(=O)NCC1CC(c2ccc(C3=CCN(C(=O)CO)CC3)cc2)=NO1 (racemic) is ___
> 16 µg/mL

----------
# assay.comment: Volume distribution in Male Sprague-Dawley Rat (10 mg/kg iv)
# Assay type: ADME, organism-based
# experimental.conditions: in vivo, read-out: Vss
quantity.name: Vd (L/kg)
The answer is to be given in L/kg; state only the numeric part.

Fill in: Vd of CC(=O)NC[C@H]1CN(c2ccc(N3CCN(C(=O)CO)CC3)c(F)c2)C(=O)O1 is ___
0.99

----------
# assay.comment: Cmax value in Male Sprague-Dawley Rat at dose 8.98 (mg/kg iv)
# Assay type: ADME, organism-based
# Set-up: dose 8.98 mg/kg, route intravenous
# experimental.conditions: in vivo
quantity.name: Cmax (ng/mL)
The answer is to be given in ng/mL; state only the numeric part.

Fill in: Cmax of CC(=O)NC[C@H]1CC(c2ccc(N3CCOCC3)c(F)c2)=NO1 is ___
17700

----------
# assay.comment: Harmonic mean apparent terminal disposition half-life [t1/2beta (h)] in Male Sprague-Dawley Rat at dose 10.1 (mg/kg iv)
# Assay type: ADME, organism-based
# experimental.conditions: in vivo, read-out: T1/2 beta (converted)
quantity.name: half-life (min)
The answer is to be given in min; state only the numeric part.

Fill in: half-life of CC(=O)NC[C@H]1CC(c2ccc(N3CCN(C(=O)CO)CC3)c(F)c2)=NO1 is ___
36.6

----------
# tested.target: CYP2D6 (Homo sapiens, UniProt P10635)
# Sequence (P10635 whole entry): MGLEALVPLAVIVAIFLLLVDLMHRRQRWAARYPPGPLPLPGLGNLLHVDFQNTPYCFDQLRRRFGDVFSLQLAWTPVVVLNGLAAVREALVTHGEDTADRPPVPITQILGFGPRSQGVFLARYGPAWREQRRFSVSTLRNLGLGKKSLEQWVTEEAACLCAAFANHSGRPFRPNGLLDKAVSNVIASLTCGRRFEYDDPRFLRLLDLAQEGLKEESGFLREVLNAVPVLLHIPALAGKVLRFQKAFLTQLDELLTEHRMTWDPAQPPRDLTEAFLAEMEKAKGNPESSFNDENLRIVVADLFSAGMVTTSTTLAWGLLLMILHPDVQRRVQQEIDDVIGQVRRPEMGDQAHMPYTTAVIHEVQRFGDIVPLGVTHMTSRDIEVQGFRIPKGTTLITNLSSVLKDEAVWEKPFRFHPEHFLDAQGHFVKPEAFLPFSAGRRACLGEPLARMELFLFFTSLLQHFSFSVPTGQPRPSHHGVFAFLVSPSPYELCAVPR
# assay.comment: Inhibition of heterologously expressed human Cytochrome P450 2D6 at 100 uM
# Type: ADME
# Design: scale not given: the % may be the effect or the level left
# experimental.conditions: read-out: Control of P-450 marker
quantity.name: activity at 100 µM

# get_value(readout= activity at 100 µM, system= CYP2D6 (Homo sapiens, UniProt P10635)) for CC(=O)NC[C@H]1CC(c2ccc(N3CCOCC3)c(F)c2)=NO1
103%

----------
# assay.comment: Tmax value in Male Sprague-Dawley Rat at dose 48.9 (mg/kg po) [tmax (h)]
# Type: ADME, organism-based
# experimental.conditions: in vivo
quantity.name: Tmax (h)
The answer is to be given in h; state only the numeric part.

Fill in: Tmax of CC(=O)NC[C@H]1CC(c2ccc(N3CCOCC3)c(F)c2)=NO1 is ___
3.2

----------
# assay.comment: Cmax value in Male Sprague-Dawley Rat at dose 10 (mg/kg iv)
# Assay type: ADME, organism-based
# Design: dose 10 mg/kg, route intravenous
# experimental.conditions: in vivo
quantity.name: Cmax (ng/mL)
The answer is to be given in ng/mL; state only the numeric part.

Fill in: Cmax of CC(=O)NC[C@H]1CN(c2ccc(N3CCN(C(=O)CO)CC3)c(F)c2)C(=O)O1 is ___
20800

----------
# System: Staphylococcus epidermidis
# assay.comment: In vitro minimum inhibitory concentration (MIC) against Staphylococcus epidermidis UC12084
# Type: functional
Under this convention, satisfied denotes MIC strictly below 4 µg/mL and not satisfied denotes MIC at or above 4 µg/mL.

Use the examples below as a reference point.
C/C(S)=N/C[C@H]1CC(c2cc(F)c(N3CCOCC3)c(F)c2)=NO1: satisfied
CC(=O)NC[C@H]1CC(c2ccc(-n3ccnc3)c(F)c2)=NO1: satisfied
CC(=O)NCC1CC(c2cc(F)c(N3CCOCC3)c(Cl)c2)=NO1 (stereo unspecified): not satisfied
CC(=O)NC[C@H]1CC(c2ccc(-c3ccncc3)cc2)=NO1: satisfied
C/C(S)=N/C[C@H]1CC(c2cc(F)c(-n3ccnc3)c(F)c2)=NO1: satisfied

Please state whether MIC is below 4 µg/mL for C/C(S)=N/C[C@H]1CC(c2ccc(-n3cccc3)c(F)c2)=NO1
satisfied

Please state whether MIC is below 4 µg/mL for CC(=O)NC[C@H]1CC(c2ccc(-n3cncn3)c(F)c2)=NO1
not satisfied

Please state whether MIC is below 4 µg/mL for CC(=O)NC[C@H]1CC(c2cc(F)c(N3CCN(C(=O)CO)CC3)c(F)c2)=NO1
satisfied

Please state whether MIC is below 4 µg/mL for CC(=O)NC[C@H]1CC(c2ccc(F)c(F)c2)=NO1
not satisfied
